Assay: Inhibition of electron transport pathway in C57B1/6 mouse liver mitochondria
Format: functional
parameter measured: IC50 (µM)
Answer format: numeric, µM implied, no suffix.

Indicate the recorded IC50 value for this compound: CC1=C[C@@H](O)C(C(C)CC[C@@H]2[C@@H](C)[C@]3(C)CC[C@@]2(C)O3)CC1 (stereo partly specified)
0.8
